Just for reference, paper PMC7588595 is where these values come from.

- SYSTEM TESTED: human AspH (His6-AspH315–758) (Homo sapiens)
- Construct: N-Terminally His6-tagged human AspH315–758 (His6-AspH315–758) was produced in Escherichia coli BL21 (DE3) cells; made in house; host or cells: Escherichia coli BL21 (DE3), pET-28a(+) vector
- Sequence (Q12797 315-758): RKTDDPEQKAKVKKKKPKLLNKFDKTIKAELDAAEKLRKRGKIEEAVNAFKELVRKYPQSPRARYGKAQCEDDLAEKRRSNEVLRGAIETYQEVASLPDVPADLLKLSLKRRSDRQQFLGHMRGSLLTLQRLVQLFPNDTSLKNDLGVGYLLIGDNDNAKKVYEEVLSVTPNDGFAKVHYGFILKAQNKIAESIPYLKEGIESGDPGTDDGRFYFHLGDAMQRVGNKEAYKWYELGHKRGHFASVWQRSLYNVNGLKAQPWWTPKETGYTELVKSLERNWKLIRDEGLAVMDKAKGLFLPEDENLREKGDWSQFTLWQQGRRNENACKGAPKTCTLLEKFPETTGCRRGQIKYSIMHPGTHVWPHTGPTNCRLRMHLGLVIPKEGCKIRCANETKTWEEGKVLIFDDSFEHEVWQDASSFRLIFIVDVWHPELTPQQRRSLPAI
- METHOD DESCRIPTION: SPE-MS AspH inhibition assay (hFX-CP101-119 substrate hydroxylation)
- Format: biochemical
- CONDITION DETAILS: 50 nM His6-AspH315–758, 1 μM hFX-CP101–119, 100 μM LAA, 3 μM 2OG, 2 μM FAS, 50 mM HEPES pH 7.5, 20 °C; read-out: IC50
REPORTED ENDPOINT: IC50 (nM)
Report as a plain number; the unit nM is understood.

Here's what some known entries look like.
O=C(O)c1ccnc(C(=O)O)c1 [2,4-PDCA, Pyridine-2,4-dicarboxylic acid, reference compound] :: 20
CO[C@@H]1[C@H](N(C)C(=O)c2ccccc2)C[C@H]2O[C@]1(C)n1c3ccccc3c3c4c(c5c6ccccc6n2c5c31)C(=O)NC4 [Midostaurin, reference compound] :: 9430
Cc1cc2c(C(C)C)c(O)c(O)c(C=O)c2c(O)c1-c1c(C)cc2c(C(C)C)c(O)c(O)c(C=O)c2c1O [(R)-Gossypol, reference compound] :: 250

Kindly review the next compound as well.
Bench note: what IC50 did CC1(C)CCC(c2ccc(Cl)cc2)=C(CN2CCN(c3ccc(C(=O)NS(=O)(=O)c4ccc(N[C@H](CCN5CCOCC5)CSc5ccccc5)c(S(=O)(=O)C(F)(F)F)c4)cc3)CC2)C1 [Navitoclax, reference compound] show?
1030
